- experiment description: Phase 1 single ascending dose (SAD)/food-effect plasma pharmacokinetics
- Type: in vivo, human
- experimental setup: human, plasma, oral, part A (SAD), 10-1120 mg; read-out: median Tmax in plasma, range over doses
observable: Tmax

> print(dat)
                                     smiles  observable        reading
1  CC(C)(C)Oc1cc(CCC(C)(C)N2Cc3ccc(S(C)(=O)=O)cc3C2)ccc1O        Tmax  0.88 to 1.5 h

* * *

- experiment description: Phase 1 multiple ascending dose (MAD) plasma pharmacokinetics
- Type: in vivo, human
- experimental setup: human, plasma, oral, 560 mg, 560 mg QD, Day 3, age at least 65 years; n = 4; over max 24 hours post dose; read-out: t1/2 (mean) (converted)
observable: half-life

> print(dat)
                                   compound  observable  reading
1  CC(C)(C)Oc1cc(CCC(C)(C)N2Cc3ccc(S(C)(=O)=O)cc3C2)ccc1O [CT1812]   half-life   8.83 h

* * *

- experiment description: Phase 1 multiple ascending dose (MAD) plasma pharmacokinetics
- Type: in vivo, human
- experimental setup: human, plasma, oral, 840 mg, 840 mg QD, Day 14, age up to 64 years (n = 7); read-out: AUC0-24h (mean)
- Protocol: In Part B, healthy young subjects in each cohort received the same dose once daily for 14 days after overnight fasting. Cohort dosing started at 280 mg, followed by 560 mg and 840 mg in subsequent cohorts. In each cohort, eight subjects received drug and two received placebo. […] This was assessed by analysis of variance (ANOVA) of log-transformed Cmax, AUC0-24, AUC0-48, and/or AUC0-inf, using a model with factors for treatment (fed status or age [young vs. elderly] status) and subject within sequence. […]
observable: AUC(0-t) (ng·h/mL)

> print(dat)
                                     smiles  reading
1  CC(C)(C)Oc1cc(CCC(C)(C)N2Cc3ccc(S(C)(=O)=O)cc3C2)ccc1O     4990

* * *

- experiment description: Phase 1 single ascending dose (SAD)/food-effect plasma pharmacokinetics
- Type: in vivo, human
- experimental setup: human, plasma, oral, 450 mg, single 450 mg, fasted (n = 6)
observable: Cmax (ng/mL)

> print(dat)
                                   molecule  quantity.unit  reading
1  CC(C)(C)Oc1cc(CCC(C)(C)N2Cc3ccc(S(C)(=O)=O)cc3C2)ccc1O [CT1812]          ng/mL      504

* * *

- experiment description: Phase 1 single ascending dose (SAD)/food-effect plasma pharmacokinetics
- Type: in vivo, human
- experimental setup: human, plasma, oral, 180 mg, single 180 mg, fasted (n = 6); read-out: t1/2 (mean) (converted)
observable: half-life (h)

> print(dat)
                                     smiles  reading
1  CC(C)(C)Oc1cc(CCC(C)(C)N2Cc3ccc(S(C)(=O)=O)cc3C2)ccc1O     11.1

* * *

- experiment description: Phase 1 multiple ascending dose (MAD) plasma pharmacokinetics
- Type: in vivo, human
- experimental setup: human, plasma, oral, 280 mg, 280 mg QD, Day 14, age up to 64 years (n = 8); read-out: AUC0-24h (mean)
observable: AUC(0-t) (ng·h/mL)

> print(dat)
                                     smiles  quantity.unit  reading
1  CC(C)(C)Oc1cc(CCC(C)(C)N2Cc3ccc(S(C)(=O)=O)cc3C2)ccc1O        ng·h/mL     1060

* * *

- experiment description: Phase 1 multiple ascending dose (MAD) plasma pharmacokinetics
- Type: in vivo, human
- experimental setup: human, plasma, oral, 840 mg, 840 mg QD, Day 3, age up to 64 years; n = 5; over max 24 hours post dose; read-out: t1/2 (mean) (converted)
observable: half-life (h)

> print(dat)
                                     smiles  observable  reading
1  CC(C)(C)Oc1cc(CCC(C)(C)N2Cc3ccc(S(C)(=O)=O)cc3C2)ccc1O   half-life     9.39

* * *

- experiment description: Phase 1 multiple ascending dose (MAD) plasma pharmacokinetics
- Format: in vivo, human
- experimental setup: 280 mg QD, Day 14, age up to 64 years (n = 8); unit assumed
observable: CLss/F (mean) (L/h)

> print(dat)
                                   molecule  reading
1  CC(C)(C)Oc1cc(CCC(C)(C)N2Cc3ccc(S(C)(=O)=O)cc3C2)ccc1O [CT1812]      387

* * *

- experiment description: Phase 1 multiple ascending dose (MAD) plasma pharmacokinetics
- Assay type: in vivo, human
- experimental setup: human, plasma, oral, 560 mg, 560 mg QD, Day 14, age at least 65 years (n = 7)
observable: Cmax (ng/mL)

> print(dat)
                                     smiles  observable  reading
1  CC(C)(C)Oc1cc(CCC(C)(C)N2Cc3ccc(S(C)(=O)=O)cc3C2)ccc1O        Cmax      853

* * *

- experiment description: Phase 1 single ascending dose (SAD)/food-effect plasma pharmacokinetics
- Type: in vivo, human
- experimental setup: human, plasma, oral, 90 mg, single 90 mg, fasted (n = 6)
observable: Cmax (ng/mL)

> print(dat)
                                     smiles  reading
1  CC(C)(C)Oc1cc(CCC(C)(C)N2Cc3ccc(S(C)(=O)=O)cc3C2)ccc1O      109

* * *

- experiment description: Phase 1 multiple ascending dose (MAD) plasma pharmacokinetics
- Type: in vivo, human
- experimental setup: human, plasma, oral, 280 mg, 280 mg QD, Day 14, age up to 64 years (n = 8)
observable: Cmax (ng/mL)

> print(dat)
                                     smiles  quantity.unit  reading
1  CC(C)(C)Oc1cc(CCC(C)(C)N2Cc3ccc(S(C)(=O)=O)cc3C2)ccc1O          ng/mL      431

* * *

- experiment description: Phase 1 single ascending dose (SAD)/food-effect plasma pharmacokinetics
- Assay type: in vivo, human
- experimental setup: human, plasma, oral, 180 mg, single 180 mg, fasted (n = 6)
observable: Cmax (ng/mL)

> print(dat)
                                   molecule  quantity.unit  reading
1  CC(C)(C)Oc1cc(CCC(C)(C)N2Cc3ccc(S(C)(=O)=O)cc3C2)ccc1O [CT1812]          ng/mL      161

* * *

- experiment description: Phase 1 single ascending dose (SAD)/food-effect plasma pharmacokinetics
- Assay type: in vivo, human
- experimental setup: human, plasma, oral, 180 mg, single 180 mg, fasted (n = 6); read-out: Tmax (median)
observable: Tmax

> print(dat)
                                   molecule  reading
1  CC(C)(C)Oc1cc(CCC(C)(C)N2Cc3ccc(S(C)(=O)=O)cc3C2)ccc1O [CT1812]   1.25 h

* * *

- experiment description: Phase 1 single ascending dose (SAD)/food-effect plasma pharmacokinetics
- Type: in vivo, human
- experimental setup: human, plasma, oral, 1120 mg, single 1120 mg, fasted (n = 6); read-out: Tmax (median)
observable: Tmax (h)

> print(dat)
                                   compound  reading
1  CC(C)(C)Oc1cc(CCC(C)(C)N2Cc3ccc(S(C)(=O)=O)cc3C2)ccc1O [CT1812]      1.5

* * *

- experiment description: Phase 1 multiple ascending dose (MAD) plasma pharmacokinetics
- Format: in vivo, human
- experimental setup: human, plasma, oral, 560 mg, 560 mg QD, Day 14, age up to 64 years (n = 8)
observable: Cmax

> print(dat)
                                   compound    reading
1  CC(C)(C)Oc1cc(CCC(C)(C)N2Cc3ccc(S(C)(=O)=O)cc3C2)ccc1O [CT1812]  651 ng/mL

* * *

- experiment description: Phase 1 multiple ascending dose (MAD) plasma pharmacokinetics
- Assay type: in vivo, human
- experimental setup: human, plasma, oral, 560 mg, 560 mg QD, Day 3, age at least 65 years (n = 7); read-out: AUC0-24h (mean)
observable: AUC(0-t) (ng·h/mL)

> print(dat)
                                     smiles  reading
1  CC(C)(C)Oc1cc(CCC(C)(C)N2Cc3ccc(S(C)(=O)=O)cc3C2)ccc1O     3330

* * *

- experiment description: Phase 1 single ascending dose (SAD)/food-effect plasma pharmacokinetics
- Format: in vivo, human
- experimental setup: human, plasma, oral, 90 mg, single 90 mg, fasted (n = 6); read-out: AUC0-inf (mean)
- Experimental: Part A was a single ascending dose cohort study in which healthy, young subjects (less than 65 years old) received one dose of study drug in the morning after an overnight fast. […] This was assessed by analysis of variance (ANOVA) of log-transformed Cmax, AUC0-24, AUC0-48, and/or AUC0-inf, using a model with factors for treatment (fed status or age [young vs. elderly] status) and subject within sequence. […]
observable: AUC(0-inf) (ng·h/mL)

> print(dat)
                                     smiles  observable  reading
1  CC(C)(C)Oc1cc(CCC(C)(C)N2Cc3ccc(S(C)(=O)=O)cc3C2)ccc1O  AUC(0-inf)      305
